pIC50 overview
# Tested on: A2780/Taxol
# test-method-notes: Antiproliferative activity against paclitaxel resistant human A2780/Taxol cells assessed as inhibition of cell growth incubated for 48 hrs by MTT assay
# Type: functional, cell-based
pIC50: −log10 of the molar value.
assay-metric: pIC50

{"columns": ["smiles-representation", "system-tested", "assay-metric", "readout-value"],
 "data": [
  ["COc1cc2c(c(OC)c1OC)-c1ccc(OC)c(=O)cc1[C@@H](NC(C)=O)CC2", "A2780/Taxol", "pIC50", 6.60],
  ["CC(=O)O[C@H]1C(=O)[C@@]2(C)[C@H]([C@H](OC(=O)c3ccccc3)[C@]3(O)C[C@H](OC(=O)[C@H](O)[C@@H](NC(=O)c4ccccc4)c4ccccc4)C(C)=C1C3(C)C)[C@]1(OC(C)=O)CO[C@@H]1C[C@@H]2O", "A2780/Taxol", "pIC50", 4.75],
  ["COc1cccc(Nc2cc(Nc3cccc(NC(=O)C4CC4)c3)ncn2)c1", "A2780/Taxol", "pIC50", 6.88]
]}
